# target.or.test.system: CynoCD100-HEK293 (cynomolgus monkey)
# method.notes: FACS
parameter: EC50 (nM)

[[record]]
binder = "A9-VHH1 (antibody, V domains shown) VH: QVQLVESGGGLVQPGGSLRLSCAASGFSLDYYAIGWFRQAPGKEREEVSCISSSGGSTDYADSVKGRFTISRAYAKVYLQMNSLKPEDTAVYYCAAGVSGSVCPPLIGAYWGQGTLVTVSS"
assay_result = 0.551

[[record]]
binder = "A9-VHH2 (antibody, V domains shown) VH: QVQLVESGGGLVQAGGSLRLSCAASGFSLDYYAIGWFRQAPGKEREEVSCISSSGGSTDYADSVKGRFTISRAYAKVYLQMNSLRAEDTAVYYCAAGVSGSVCPPLIGAYWGQGTLVTVSS"
assay_result = 0.516

[[record]]
binder = "A9 (antibody, V domains shown) VH: QVQLVESGGGLVQAGGSLRLSCAASGFSLDYYAIGWFRQAPGKEREEVSCISSSGGSTDYADSVKGRFTISRAYAKVYLQMNSLKPEDTAVYYCAAGVSGSVCPPLIGAYWGQGTQVTVSS"
assay_result = 0.47


These data points were gathered from patent US20260028402A1.
